Molecular target: Choline O-acetyltransferase (Rattus norvegicus)
Sequence (whole entry): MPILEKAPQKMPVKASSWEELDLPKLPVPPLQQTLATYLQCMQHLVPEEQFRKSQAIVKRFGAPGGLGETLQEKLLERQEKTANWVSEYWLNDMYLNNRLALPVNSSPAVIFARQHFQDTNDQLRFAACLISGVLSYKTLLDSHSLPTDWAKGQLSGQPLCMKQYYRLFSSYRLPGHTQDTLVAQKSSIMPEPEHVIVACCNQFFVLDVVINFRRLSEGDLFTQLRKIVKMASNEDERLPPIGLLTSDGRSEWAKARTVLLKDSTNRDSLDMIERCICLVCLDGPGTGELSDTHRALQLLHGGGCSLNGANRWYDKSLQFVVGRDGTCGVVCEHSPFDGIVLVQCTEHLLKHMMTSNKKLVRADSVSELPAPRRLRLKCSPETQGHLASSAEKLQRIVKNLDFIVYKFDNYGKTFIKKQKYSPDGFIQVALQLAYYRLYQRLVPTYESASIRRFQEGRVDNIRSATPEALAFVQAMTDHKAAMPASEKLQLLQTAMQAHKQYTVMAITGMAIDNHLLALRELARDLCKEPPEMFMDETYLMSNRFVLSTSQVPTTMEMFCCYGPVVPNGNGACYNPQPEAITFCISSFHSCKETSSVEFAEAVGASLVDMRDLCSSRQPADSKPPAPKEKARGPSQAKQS
Test: Induction of ChAT activity in rat forebrain cells at 1 ug/mL relative to control
Format: cell-based
Entries and their Activity
Supply the numeric figure in %, leaving out any unit text.

For the compound shown here, "C=C1CC[C@@H]2O[C@]2(COC(C)=O)C[C@H]2O[C@@]23[C@H](C(C)(C)O)CC[C@@]3(C)CC1" , give the reported Activity.
210

Others:
For the compound shown here, "COC1(OC)CC[C@@H]2O[C@]2(CO)C[C@H]2O[C@@]23[C@H](C(C)(C)O)CC[C@@]3(C)CC1" , give the reported Activity.
104

For the compound shown here, "C=C1CC[C@@H]2O[C@]2(CO)C[C@H]2O[C@@]23[C@H](C(C)(C)O)CC[C@@]3(C)CC1" , give the reported Activity.
231

For the compound shown here, "C=C1CC[C@@H]2O[C@]2(COC(=O)CCCCCCCCCCC)C[C@H]2O[C@@]23[C@H](C(C)(C)O)CC[C@@]3(C)CC1" , give the reported Activity.
143

For the compound shown here, "C=C1CC[C@@H](OC)[C@@](O)(CO)C[C@H]2O[C@@]23[C@H](C(C)(C)O)CC[C@@]3(C)CC1" , give the reported Activity.
92.3

For the compound shown here, "C=C1CC[C@@H]2O[C@]2(COC(=O)CCC)C[C@H]2O[C@@]23[C@H](C(C)(C)O)CC[C@@]3(C)CC1" , give the reported Activity.
179

For the compound shown here, "C=C1CC[C@@H]2O[C@]2(COC(C)=O)C[C@H]2O[C@@]23[C@H](C(C)(C)O)CC[C@@]3(C)[C@H](OC(C)=O)C1" , give the reported Activity.
161
